# reported Kd; entries follow
# studySystem: T1, Human CD47-C33G (human, UniProt Q08722 19-135)
# T1 construct: also called CD47 mutein with C33G mutation
# T1 sequence (Q08722 19-135 C33G limits assumed): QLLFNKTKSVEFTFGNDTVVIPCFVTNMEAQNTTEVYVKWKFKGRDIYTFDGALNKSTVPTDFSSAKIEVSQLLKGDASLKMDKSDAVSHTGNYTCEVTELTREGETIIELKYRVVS
# procedureSummary: SPR, IgG captured, CD47 in flow; exp 2;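 also: IgG from HEK293 cell supernatants tested by SPR on a BIAcore T200, C33G mutein prevents IgV homodimers for monovalent affinity, KD derived from association and dissociation rates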
Answer with a number only, understood to be in nM.

Examples from the recorded data:
INSERT INTO assay_data (binder, unitabbreviation, observedvalue) VALUES
  ('chimeric antibody 108C10A6 (antibody, V domains shown, Chimeric antibody with mouse variable domains; captured through human Fc; also called VH / VL) VH: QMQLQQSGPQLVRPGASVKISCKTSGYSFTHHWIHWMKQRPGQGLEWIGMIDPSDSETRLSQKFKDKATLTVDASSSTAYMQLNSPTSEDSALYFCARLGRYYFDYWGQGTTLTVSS VL: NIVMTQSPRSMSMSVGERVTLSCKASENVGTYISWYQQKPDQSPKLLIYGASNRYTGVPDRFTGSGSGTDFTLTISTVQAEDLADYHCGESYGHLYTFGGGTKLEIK', 'nM', 1),
  ('108VH5.M10 / 108VL1.M5 (antibody, human IgG4 S228P, kappa, V domains shown, Full-length IgG4 (S228P), kappa; also called VH5.M10 VL1.M5) VH: EVQLVQSGAEVKKPGASVKVSCKASGYTFTHHWIHWVRQAPGQGLEWMGMIDASDSETRYAQKFQGRVTMTRDTSTSTVYMELSSLRSEDTAVYYCARLGRYYFDYWGQGTLVTVSS VL: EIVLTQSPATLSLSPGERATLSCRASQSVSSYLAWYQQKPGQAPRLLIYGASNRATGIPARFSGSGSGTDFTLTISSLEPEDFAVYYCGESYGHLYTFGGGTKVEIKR', 'nM', 16);

Tell us which Kd value is on record for 108VH5 / 108VL1.M5 (antibody, human IgG4 S228P, kappa, V domains shown, Full-length IgG4 (S228P), kappa; also called VH5 VL1.M5) VH: EVQLVQSGAEVKKPGASVKVSCKASGYSFTHHWIHWVRQAPGQGLEWMGMIDPSDSETRLSQKFKDRVTMTRDTSTSTVYMELSSLRSEDTAVYYCARLGRYYFDYWGQGTLVTVSS VL: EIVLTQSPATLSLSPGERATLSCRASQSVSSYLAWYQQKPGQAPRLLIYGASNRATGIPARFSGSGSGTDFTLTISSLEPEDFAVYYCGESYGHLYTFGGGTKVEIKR
3.9

Tell us which Kd value is on record for 108VH5.M12 / 108VL1.M5 (antibody, human IgG4 S228P, kappa, V domains shown, Full-length IgG4 (S228P), kappa; also called VH5.M12 VL1.M5) VH: EVQLVQSGAEVKKPGASVKVSCKASGYTFTHHWMHWVRQAPGQGLEWMGMIDASDSETRYAQKFQGRVTMTRDTSTSTVYMELSSLRSEDTAVYYCARLGRYYFDYWGQGTLVTVSS VL: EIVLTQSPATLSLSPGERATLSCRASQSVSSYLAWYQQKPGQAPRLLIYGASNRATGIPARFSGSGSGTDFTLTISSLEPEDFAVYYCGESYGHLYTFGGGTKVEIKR
15

Tell us which Kd value is on record for 108VH5.M14 / 108VL1.M5 (antibody, human IgG4 S228P, kappa, V domains shown, Full-length IgG4 (S228P), kappa; also called VH5.M14 VL1.M5) VH: EVQLVQSGAEVKKPGASVKVSCKASGYTFTHHWIHWVRQAPGQGLEWMGMIDASDGETRYAQKFQGRVTMTRDTSTSTVYMELSSLRSEDTAVYYCARLGRYYFDYWGQGTLVTVSS VL: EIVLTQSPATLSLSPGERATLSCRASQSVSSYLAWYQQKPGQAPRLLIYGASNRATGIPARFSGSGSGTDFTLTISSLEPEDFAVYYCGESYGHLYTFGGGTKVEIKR
14
